Assay read-out pKi; system under study: μ opioid receptor (Rattus norvegicus).
Sequence (P33535 whole entry): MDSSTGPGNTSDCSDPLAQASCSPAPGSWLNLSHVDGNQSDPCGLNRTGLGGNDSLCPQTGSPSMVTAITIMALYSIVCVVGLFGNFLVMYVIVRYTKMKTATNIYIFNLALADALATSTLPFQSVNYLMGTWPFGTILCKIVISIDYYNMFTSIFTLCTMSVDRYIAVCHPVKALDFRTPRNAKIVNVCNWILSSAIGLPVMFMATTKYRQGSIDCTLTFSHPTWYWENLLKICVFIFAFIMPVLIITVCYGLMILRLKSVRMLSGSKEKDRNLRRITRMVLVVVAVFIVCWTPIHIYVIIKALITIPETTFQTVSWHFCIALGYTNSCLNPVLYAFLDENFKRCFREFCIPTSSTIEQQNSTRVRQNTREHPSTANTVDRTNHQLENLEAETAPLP
Positions of bridges follow the written chain, without caps; N, C: chain ends. Non-standard residues stand in square brackets, D forms with d. Residues, ends and D or L forms follow the SMILES beside them. 2Nal = N[C@@H](Cc1ccc2ccccc2c1)C(=O)O; Dmt = Cc1cc(O)cc(C)c1C[C@H](N)C(=O)O; dOrn = NCCC[C@@H](N)C(=O)O
Scale explanation: pKi corresponds to minus log10 of a concentration expressed in moles per litre.

Please give the measured pKi for this molecule: Cc1cc(O)cc(C)c1C[C@H](N)C(=O)N[C@@H]1CCCNC(=O)CNC(=O)[C@H]2CCCN2C(=O)[C@H](Cc2ccc3ccccc3c2)NC1=O [Example 3, H-Dmt-c[-D-Orn-2-Nal-D-Pro-Gly-]] (H-[Dmt][dOrn][2Nal][dP]G; lactam 2-C)
9.34

One more molecule: CN[C@@H](Cc1ccc(O)cc1)C(=O)N[C@@H]1CCCNC(=O)CNC(=O)[C@H]2CCCN2C(=O)[C@H](Cc2ccc3ccccc3c2)NC1=O [Example 1, Tyr(NMe)-c[-D-Orn-2-Nal-D-Pro-Gly-]] (HELM PEPTIDE1{[meY].[O=C([C@@H](CCCN[*:3])N[*:1])[*:2]].[O=C([C@H](Cc1ccc2ccccc2c1)N[*:1])[*:2]].[dP].G}$PEPTIDE1,PEPTIDE1,2:R3-5:R2$$$V2.0)
8.77

One more molecule: N[C@@H](Cc1ccc(O)cc1)C(=O)N[C@@H]1CCCNC(=O)CNC(=O)[C@H]2CCCN2C(=O)[C@H](Cc2ccc3ccccc3c2)NC1=O [H-Tyr-c[-D-Orn-2-Nal-D-Pro-Gly-], reference compound] (HELM PEPTIDE1{Y.[O=C([C@@H](CCCN[*:3])N[*:1])[*:2]].[O=C([C@H](Cc1ccc2ccccc2c1)N[*:1])[*:2]].[dP].G}$PEPTIDE1,PEPTIDE1,2:R3-5:R2$$$V2.0)
8.23
